- measurement_target: IGF-1R-cytoplasmic kinase domain (IGF-1R-CKD; amino acids 959-1367 of IGF-1R) (Homo sapiens, UniProt P08069)
- Construct: amino acids 959-1367 of IGF-1R
- Sequence (P08069 959-1367): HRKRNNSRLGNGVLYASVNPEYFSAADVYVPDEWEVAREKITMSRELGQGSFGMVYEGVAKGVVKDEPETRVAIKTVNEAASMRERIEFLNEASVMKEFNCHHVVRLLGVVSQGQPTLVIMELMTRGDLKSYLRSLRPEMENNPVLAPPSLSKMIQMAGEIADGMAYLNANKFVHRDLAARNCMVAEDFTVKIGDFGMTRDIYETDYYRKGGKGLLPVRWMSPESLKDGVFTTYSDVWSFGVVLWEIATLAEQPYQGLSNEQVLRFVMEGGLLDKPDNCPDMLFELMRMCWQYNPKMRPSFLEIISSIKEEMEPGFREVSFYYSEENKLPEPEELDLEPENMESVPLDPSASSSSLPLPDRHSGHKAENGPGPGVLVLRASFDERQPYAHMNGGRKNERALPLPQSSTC
- assay_summary: IGF-1R substrate assay (KS2 phosphorylation)
- Format: biochemical
- assay_setup: compounds 50 μM; 50 μM ATP; KS2-biotin substrate
observed_property: inhibition at 50 µM (%)
One number for each entry, in %.

COc1c(Cl)cccc1NC(=O)Nc1cc(C)nc2ccccc12 ... 21
COc1ccc(Cl)cc1NC(=O)Nc1cc(C)nc2ccccc12 ... 23
Cc1ccc(NC(=O)Nc2nccs2)cc1Cl ... 21

Attention now shifts to the item below.
Lookup result for `Cc1ccc(NC(=O)Nc2cnc3ccccc3c2)cc1Cl` ; measured inhibition at 50 µM: 65

* * *

- measurement_target: IGF-1R-cytoplasmic kinase domain (IGF-1R-CKD; amino acids 959-1367 of IGF-1R) (Homo sapiens)
- Construct: amino acids 959-1367 of IGF-1R
- assay_summary: IGF-1R substrate assay (KS2 phosphorylation)
- Assay type: biochemical
- assay_setup: compounds 50 μM; 50 μM ATP; KS2-biotin substrate
observed_property: inhibition at 50 µM
# answer = value followed by unit

Recorded results for 4 compounds are shown here.
COc1ccccc1NC(=O)Nc1nccs1 ... 20%
O=C(Nc1cccc(Cl)c1)Nc1cnc2ccccc2c1 ... 26%
O=C(Nc1cc(Cl)cc(Cl)c1)Nc1nccs1 ... 17%
CCc1ccc(NC(=O)Nc2cccc3cccnc23)cc1 ... 33%

# input for lookup
inhibition at 50 µM reported for this compound `COc1c(Cl)cccc1NC(=O)Nc1nccs1` : 21%
